- System: NCI-H226 lung
- experiment: NCI tumour cell line growth inhibition, 48 h
Collected TGI values appear next to each entry.

Solved cases below.
# molecule, result
records = [
    ("O=S(=O)(/N=c1/scc(-c2ccccc2)n1-c1ccccc1)c1ccc(N2N=C3c4ccccc4CC3C2c2cccs2)cc1 (stereo not given)", "> 100 µM"),
    ("COc1cc(-c2c(C#N)c(N)nc(N3CCOCC3)c2C#N)cc(OC)c1OC", "> 100 µM"),
    ("Cc1ccc(S(=O)OCC23CC4CC(CC(C4)C2)C3)cc1 (stereo not given)", "> 100 µM"),
    ("O=C1c2cc([N+](=O)[O-])ccc2-c2ccc3c4ccc5c6c(ccc(c7ccc1c2c73)c64)C(=O)c1cc([N+](=O)[O-])ccc1-5", "> 100 µM"),
    ("CN(C)c1ccc(/C=C/C2=[N+](C)c3ccccc3C2(C)C)cc1", "26.1 µM"),
    ("CC#CC1C2CCCC1(CSc1ccccc1)NC(=O)O2 (stereo not given)", "> 100 µM"),
    ("CC(=O)c1cc(C(=O)c2ccc3c(c2)Sc2ccccc2N3)c2cc(C)ccn12", "> 100 µM"),
    ("Cc1ccc(Cl)c(Nc2ccccc2C(=O)O)c1Cl", "82.4 µM"),
    ("COc1cc2c(cc1OC)C1Cc3cc(OC)c(OC)cc3C(C2)N1C", "> 75 µM"),
]

Could you now consider this next molecule?
The molecule CC1CCC2(CC1)NC1=C(CC(C)CC1)C1=C2CC(C)CC1 (stereo not given) on NCI-H226 lung: TGI was 30.8 µM
